System: HCT-116 colon
Experiment: NCI tumour cell line growth inhibition, 48 h
Known TGI of a selection of molecules

molecule | TGI
Cc1cc(NS(=O)(=O)c2ccc(Nc3c4ccccc4nc4c(C(=O)Nc5ccc(S(N)(=O)=O)cc5)cccc34)cc2)no1 | > 100 µM
COc1cc(N2C(=O)C(=O)C3(CCCCC3)C2=O)cc(OC)c1OC | > 100 µM
COc1ccc(C23OCC(Cc4cc(OC)c(OC)cc42)C3COC(C)=O)cc1OC (stereo unspecified) | > 100 µM
COC(=O)C1=C(OC(=O)c2ccccc2)C(C(=O)OC)[C@]2(O)[C@@H](C(=O)OC)C1CC(c1ccccc1OC)[C@@H]2C(=O)OC (stereo partly specified) | 52.8 µM
COc1ccc(/C=C/c2nsc(/C=C/c3ccc(OC)cc3)n2)cc1 | > 100 µM
O=C(NCCOC(=O)OCCNC(=O)NC1CCCCC1)NC1CCCCC1 | > 100 µM

====

Known TGI of a selection of compounds
Test system: M19-MEL melanoma
Experiment: NCI tumour cell line growth inhibition, 48 h
measurement label: TGI (µM)

compound | reading qualifier | measured result
CC(=O)[CH-]C(=O)c1ccccc1.CC(=O)[CH-]C(=O)c1ccccc1.CCN(CC)CC[O-].CCN(CC)CC[O-].Cl.[Hf+4] | > | 100
C[CH2][Sn]([CH2]C)([O]C(=O)c1cccc(OC)c1)[O][Sn]([CH2]C)([CH2]C)[O]C(=O)c1cccc(OC)c1 | = | 31.7
COc1ccc(/C=C/C(=O)C(C)(C)C)cc1OC | > | 100
O=C(NO)C(=O)Nc1cc(Cl)ccc1Cl | > | 100
N#Cc1c2c(c(Cl)n3c1nc1ccccc13)CCCC2 | = | 12.2
COc1ccc(C(c2ccc(C(C)C)cc(OC)c2=O)c2ccc(C(C)C)cc(OC)c2=O)cc1 | = | 27.1
Nc1n[n+](=O)c2ccccc2n1O | > | 100
COC1=CC(=O)c2c(ccc3ncnc(N)c23)C1=O | = | 3.14
O=C1C(Cl)C(c2cc(Br)cc(Br)c2O)N1n1cnc2ccccc2c1=O (centres undefined) | = | 62.2
CCCOP1(=O)C=C(O)C(Cl)=C(C)C1 (centres undefined) | > | 100
CCOC(=O)C1C(c2ccccc2)=C(c2ccccc2)C(c2ccccc2)=C1c1ccccc1 | > | 100
Cc1cc(NS(=O)(=O)c2ccc(Nc3c4ccccc4nc4c(C(=O)Nc5ccc(S(N)(=O)=O)cc5)cccc34)cc2)no1 | = | 64.8
CNc1ccc(/C=C2\C=Cc3ccccc32)cc1 | > | 100
O=Cc1c(O)ccc2ccc(O)c(-c3c(O)ccc4ccc(O)cc34)c12 | > | 100

====

System: ACHN renal
Assay: NCI tumour cell line growth inhibition, 48 h
Known TGI of a selection of compounds
measurement label: TGI

compound | target or test system | measured result
CN(C)c1[se]nc2c1c(=O)n(C)c(=O)n2C | ACHN renal | > 100 µM
O=c1c2c([nH]c3ccccc13)CCCC2 | ACHN renal | > 100 µM
CCOC(=O)c1csc(CCCCCCc2nc(C(=O)OCC)cs2)n1 | ACHN renal | > 100 µM
Cc1nc2c(n1CC(C)C)C(=O)c1ccccc1C2=O | ACHN renal | > 100 µM
CC1NS(=O)(=O)N(C)C1=O (centres undefined) | ACHN renal | > 100 µM
O=C1c2scc(-c3ccccc3)c2-n2cccc21 | ACHN renal | > 100 µM
Cc1nn(C(=O)c2ccccc2O)c2c1C(c1ccccc1O)SC(N)=N2 (centres undefined) | ACHN renal | > 10 µM
O=C(NCCOC(=O)OCCNC(=O)NC1CCCCC1)NC1CCCCC1 | ACHN renal | > 100 µM
CCCCC(=O)OC[n+]1cccc(-c2c(COC(=O)NC(C)C)c(COC(=O)NC(C)C)c3n2CCC3)c1 | ACHN renal | 82.8 µM
COc1cc(/C=C/C(=O)Nc2ccc3c(c2)/C(=C\c2cccn2C)C(=O)N3)cc(OC)c1OC | ACHN renal | 53.9 µM
C=CCn1c(SCC(=O)Nc2ccc(C(=O)/C=C/c3cc(OC)c(OC)c(OC)c3)cc2)nnc1-c1ccc(Cl)cc1 | ACHN renal | 22 µM
O=C1NC(=O)/C(=C/c2c(Cl)nc3sccn23)S1 | ACHN renal | > 100 µM
Oc1c(CN2CCOCC2)ccc(CN2CCOCC2)c1O | ACHN renal | > 100 µM
CCn1c2ccccc2c2cc(/C=C(/C#N)C(N)=S)ccc21 | ACHN renal | 64 µM
COc1ccc(C(=C[N+](=O)[O-])c2ccc(OC)cc2)cc1 | ACHN renal | > 100 µM
COc1ccc(C2/C(=C(\O)c3ccccc3)C(=O)C(O)(CC(=O)c3ccccc3)N2c2ccc(OC)cc2)cc1 (centres undefined) | ACHN renal | 68.8 µM
COc1nc(NC2OC(COC(C)=O)C(OC(C)=O)C(OC(C)=O)C2OC(C)=O)c2c(OC(C)=O)c(C)c(=O)oc2n1 (centres undefined) | ACHN renal | 3.16 µM
O=C(Nc1c(Cl)cccc1Cl)c1c(Cl)c(Cl)c(Cl)c(Cl)c1-c1nc2ccccc2[nH]1 | ACHN renal | > 100 µM
COc1ccc(/C=C/c2nsc(/C=C/c3ccc(OC)cc3)n2)cc1 | ACHN renal | > 100 µM
C=CCN(Cc1ccncc1)C(=O)C(O)(c1ccccc1)c1ccccc1 | ACHN renal | > 100 µM
COC(=O)C1C(O)C(C)C(=O)C(C)/C=C\C=C(C)C(=O)Nc2c(C)c(OC(C)=O)c3c(c2O)C(=O)C(C)=C2OCOC(=C23)C(C)=CC(C)(O)C(O)C(C)C1O (centres undefined) | ACHN renal | > 100 µM
O=C(/C=C/c1cc2ccccc2[nH]c1=O)c1ccc(Cl)cc1 | ACHN renal | > 64.9 µM
O=C1C=CC(=O)c2c(O)ccc(O)c21 | ACHN renal | 2.67 µM
CC(C)=CC(O)C(C(O)CCC1(C)OCCO1)S(=O)(=O)c1ccccc1 (centres undefined) | ACHN renal | > 100 µM
COc1ccc2c(c1)C(N)=C(c1ccccc1OC)C2=O | ACHN renal | > 100 µM
C=CCSc1nc2c(N)ncnc2n1C1OC(CO)C(O)C1O (centres undefined) | ACHN renal | > 100 µM
Brc1ccc(SCN(CSc2ccc(Br)cc2)Cc2ccccc2)cc1 | ACHN renal | 19 µM
COc1cc(/C=C/C(=O)Oc2ccc(NC(C)=O)cc2)ccc1C(=O)OCc1ccccc1 | ACHN renal | > 100 µM
CC(=O)OC1CC2CC(=O)CC1N2C (centres undefined) | ACHN renal | > 100 µM
CCOC(=O)C1C(c2ccccc2)=C(c2ccccc2)C(c2ccccc2)=C1c1ccccc1 | ACHN renal | > 82.2 µM
CN(NC(=O)/C(=C/c1ccc(Cl)cc1)NC(=O)c1ccccc1)c1cn[nH]c(=O)c1Cl | ACHN renal | > 100 µM
N#Cc1c(-c2ccc(Cl)cc2)csc1NC(=O)Nc1ccc(Cl)c(C(F)(F)F)c1 | ACHN renal | 5.18 µM
CC1CN=C(N(Cc2ccc(F)cc2)C(=O)Nc2ccc(Cl)cc2)S1 (centres undefined) | ACHN renal | > 100 µM
O=C1C(Cl)C(c2cc(Br)cc(Br)c2O)N1n1cnc2ccccc2c1=O (centres undefined) | ACHN renal | > 100 µM

====

Tested on: SF-268 CNS
Assay: NCI tumour cell line growth inhibition, 48 h
Known TGI of a selection of compounds
measurement label: TGI

compound | measured result
CCN(CC)CCCC(CO)Nc1ccnc2cc(Cl)ccc12 (configuration not stated) | > 100 µM
CC1=NCC[N+]1(CCc1ccccc1)Cc1ccccc1 (configuration not stated) | > 100 µM
O=C(NCCOC(=O)OCCNC(=O)NC1CCCCC1)NC1CCCCC1 | > 100 µM
Cn1c(=O)n(CCCO)c(=O)c2c1nc(Oc1cccc(OC(F)(F)F)c1)n2Cc1ccc(Cl)cc1 | 24.5 µM
NC(=S)N/N=C/c1c[nH]c2ccccc12 | > 100 µM
N#CC[C@@H](O)COc1ccccc1 | > 100 µM
O=C(Nc1ccc(-n2cc(-c3ccncc3)c(-c3ccc(O)c(Cl)c3)n2)cc1)c1cc(C(F)(F)F)cc(C(F)(F)F)c1 | > 25 µM
N#Cc1c2c(c(Cl)n3c1nc1ccccc13)CCCC2 | 8.83 µM
COc1ccc2c(c1)C1C(CO2)C(c2ccccc2)=NN1c1ccccc1 (configuration not stated) | > 100 µM
O=C(c1ccc(Cl)cc1Cl)N(/N=C/C=C/c1ccccc1)c1nnc(-c2ccccc2)c(-c2ccccc2)n1 | > 100 µM
COc1ccc(/C=C/c2nsc(/C=C/c3ccc(OC)cc3)n2)cc1 | > 100 µM
O=C1c2ccccc2C(=O)N1C/C=N/NS(=O)(=O)c1ccc(F)cc1 | > 100 µM
